test summary: in vivo
condition summary: swiss nude, mouse, blood pool surrogate (BPS), iv
Numbered stars: 1 amine (or outer) side, 2 acyl side, 3 side chain; on linkers, the order of the positions; unused ones are H or OH. Bridge positions count the residues as written; N and C are the ends. Square brackets hold non-standard residues; d marks the D form. Peptide text beside a SMILES is read from it. * marks the point of attachment. ξ: configuration not given here. X6 = NCCNCC(CNCCN)C(=O)NCCOCCOCCOCCOCCOCCOCCC(=O)NCCCOCCOCCOCCCN*; X1 = NCCNCC(CNCCN)C(=O)N1CCN(CC(=O)NCCCOCCOCCOCCCN*)CC1; Pyridine(3,5-bisCH2) = c1ncc(C[*:2])cc1C[*:1]; mXylylene = c1cc(C[*:1])cc(C[*:2])c1; PEG6 = NCCOCCOCCOCCOCCOCCOCCC(=O)O; Suc = O=C(CCC(=O)[*:2])[*:1]; Nle = CCCC[C@H](N)C(=O)O; X2 = NCCNCC(CNCCN)C(=O)*; ξC = NC(CS)C(=O)O
// boundary case: tissue uptake at 1 h equal to 0.7 %ID/g maps to 0; strictly smaller maps to 1

INSERT INTO assay_data (molecule, category_label) VALUES
  ('CCCC[C@H](NC(=O)CCC(=O)NCCCOCCOCCOCCCNC(=O)CN1CCN(C(=O)C(CNCCN)CNCCN)CC1)C(=O)N[C@H]1CSCc2cccc(c2)CSC[C@@H](C(=O)NCCC(=O)O)NC(=O)[C@H](Cc2ccccc2)NC(=O)[C@H](CCC(N)=O)NC(=O)[C@H]([C@@H](C)O)NC(=O)[C@@H]2CCCN2C(=O)[C@@H]2CCCN2C1=O', 0),
  ('CCCC[C@H](NC(=O)CCC(=O)NCCCOCCOCCOCCCNC(=O)C(CNCCN)CNCCN)C(=O)N[C@H]1CSCc2cncc(c2)CSCC(C(=O)O)NC(=O)[C@H](Cc2ccccc2)NC(=O)[C@H](CCC(N)=O)NC(=O)[C@H]([C@@H](C)O)NC(=O)[C@@H]2CCCN2C(=O)[C@@H]2CCCN2C1=O (stereo partly drawn)', 1),
  ('CCCCNC(=O)N[C@H]1CSCc2cc(cc(CN3CCN(C(=O)C(CNCCN)CNCCN)CC3)c2)CSC[C@@H](C(=O)O)NC(=O)[C@H](Cc2ccccc2)NC(=O)[C@H](CCC(N)=O)NC(=O)[C@H]([C@@H](C)O)NC(=O)[C@@H]2CCCN2C(=O)[C@@H]2CCCN2C1=O', 0),
  ('CCCC[C@H](NC(=O)CCC(=O)NCCCOCCOCCOCCCNC(=O)CN1CCN(C(=O)C(CNCCN)CNCCN)CC1)C(=O)N[C@H]1CSCc2cccc(c2)CSCC(C(=O)O)NC(=O)[C@H](Cc2ccccc2)NC(=O)[C@H](CCC(N)=O)NC(=O)[C@H]([C@@H](C)O)NC(=O)[C@@H]2CCCN2C(=O)[C@@H]2CCCN2C1=O (stereo partly drawn)', 1),
  ('CCCC[C@H](NC(=O)CCC(=O)NCCCOCCOCCOCCCNC(=O)CN1CCN(C(=O)C(CNCCN)CNCCN)CC1)C(=O)N[C@H]1CSCc2cncc(c2)CSC[C@@H](C(=O)NCCC(=O)O)NC(=O)[C@H](Cc2ccccc2)NC(=O)[C@H](CCC(N)=O)NC(=O)[C@H]([C@@H](C)O)NC(=O)[C@@H]2CCCN2C(=O)[C@@H]2CCCN2C1=O', 1);

Input line: Strictly below 0.7 %ID/g in tissue uptake at 1 h? CCCC[C@H](NC(=O)CCOCCOCCOCCOCCOCCOCCNC(=O)C(CNCCN)CNCCN)C(=O)N[C@H]1CSCc2cncc(c2)CSCC(C(=O)O)NC(=O)[C@H](Cc2ccccc2)NC(=O)[C@H](CCC(N)=O)NC(=O)[C@H]([C@@H](C)O)NC(=O)[C@@H]2CCCN2C(=O)[C@@H]2CCCN2C1=O (stereo partly drawn)
Output line: 1

Input line: Strictly below 0.7 %ID/g in tissue uptake at 1 h? CCCC[C@H](NC(=O)CCC(=O)NCCCOCCOCCOCCCNC(=O)CN1CCN(C(=O)C(CNCCN)CNCCN)CC1)C(=O)N[C@H]1CSCc2cncc(c2)CSCC(C(=O)O)NC(=O)[C@H](Cc2ccccc2)NC(=O)[C@H](CCC(=O)O)NC(=O)[C@H]([C@@H](C)O)NC(=O)[C@@H]2CCCN2C(=O)[C@@H]2CCCN2C1=O (stereo partly drawn) [3BP-4775] ({X1-Suc}-[Nle]CPPTEF[ξC]-OH; linker 2-8 via Pyridine(3,5-bisCH2))
Output line: 1

Input line: Strictly below 0.7 %ID/g in tissue uptake at 1 h? CCCC[C@H](NC(=O)CCC(=O)NCCCOCCOCCOCCCNC(=O)CCOCCOCCOCCOCCOCCOCCNC(=O)C(CNCCN)CNCCN)C(=O)N[C@H]1CSCc2cccc(c2)CSC[C@@H](C(=O)O)NC(=O)[C@H](Cc2ccccc2)NC(=O)[C@H](CCC(=O)O)NC(=O)[C@H]([C@@H](C)O)NC(=O)[C@@H]2CCCN2C(=O)[C@@H]2CCCN2C1=O [3BP-4780] ({X6-Suc}-[Nle]CPPTEFC-OH; linker 2-8 via mXylylene)
Output line: 0

Input line: Strictly below 0.7 %ID/g in tissue uptake at 1 h? CCCC[C@H](NC(=O)CCC(=O)NCCCOCCOCCOCCCNC(=O)CCOCCOCCOCCOCCOCCOCCNC(=O)C(CNCCN)CNCCN)C(=O)N[C@H]1CSCc2cccc(c2)CSCC(C(=O)O)NC(=O)[C@H](Cc2ccccc2)NC(=O)[C@H](CCC(N)=O)NC(=O)[C@H]([C@@H](C)O)NC(=O)[C@@H]2CCCN2C(=O)[C@@H]2CCCN2C1=O (stereo partly drawn)
Output line: 1

Input line: Strictly below 0.7 %ID/g in tissue uptake at 1 h? CCCC[C@H](NC(=O)CCOCCOCCOCCOCCOCCOCCNC(=O)C(CNCCN)CNCCN)C(=O)N[C@H]1CSCc2cccc(c2)CSCC(C(=O)O)NC(=O)[C@H](Cc2ccccc2)NC(=O)[C@H](CCC(N)=O)NC(=O)[C@H]([C@@H](C)O)NC(=O)[C@@H]2CCCN2C(=O)[C@@H]2CCCN2C1=O (stereo partly drawn)
Output line: 1

Input line: Strictly below 0.7 %ID/g in tissue uptake at 1 h? CCCC[C@H](NC(=O)CCOCCOCCOCCOCCOCCOCCNC(=O)C(CNCCN)CNCCN)C(=O)N[C@H]1CSCc2cncc(c2)CSCC(C(=O)O)NC(=O)[C@H](Cc2ccccc2)NC(=O)[C@H](CCC(=O)O)NC(=O)[C@H]([C@@H](C)O)NC(=O)[C@@H]2CCCN2C(=O)[C@@H]2CCCN2C1=O (stereo partly drawn) [3BP-4773] ({X2-PEG6}-[Nle]CPPTEF[ξC]-OH; linker 2-8 via Pyridine(3,5-bisCH2))
Output line: 1
